- Target Under Test: E. coli DH5α tryptophan synthase (TrpBA) (Escherichia coli, UniProt P0A879)
- Construct: made in house; host or cells: E. coli LMG194 (pBAD) or BL-21 (pET)
- Sequence (P0A879 whole entry): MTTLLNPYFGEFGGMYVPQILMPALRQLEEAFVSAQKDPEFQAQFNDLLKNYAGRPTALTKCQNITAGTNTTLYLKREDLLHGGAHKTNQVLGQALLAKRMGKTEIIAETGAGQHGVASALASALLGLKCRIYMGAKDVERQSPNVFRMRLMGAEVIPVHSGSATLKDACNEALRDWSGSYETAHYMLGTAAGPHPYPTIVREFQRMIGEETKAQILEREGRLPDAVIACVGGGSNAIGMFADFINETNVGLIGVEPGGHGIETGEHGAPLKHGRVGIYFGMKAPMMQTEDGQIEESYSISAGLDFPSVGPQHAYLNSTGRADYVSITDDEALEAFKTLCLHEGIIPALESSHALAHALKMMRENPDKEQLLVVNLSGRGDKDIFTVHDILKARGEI
- Sequence (P0A877 whole entry, further chain): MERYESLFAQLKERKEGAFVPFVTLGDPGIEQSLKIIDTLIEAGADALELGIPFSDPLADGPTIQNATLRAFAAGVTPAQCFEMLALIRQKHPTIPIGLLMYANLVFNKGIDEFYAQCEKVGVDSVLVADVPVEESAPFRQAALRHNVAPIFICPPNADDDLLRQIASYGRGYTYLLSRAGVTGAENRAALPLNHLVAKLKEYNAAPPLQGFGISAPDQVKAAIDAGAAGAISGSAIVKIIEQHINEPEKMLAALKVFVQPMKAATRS
- Assay type: biochemical
- Design: key: +: a clear ninhydrin-positive spot at the Rf of standard tryptophan derivatives after 16-65 h; (+): a weak spot in the product region; −: no product observed; NR: experiment not run
- Experimental Setup: indole derivative + L-serine + PLP, 37° C., 16-65 h, ninhydrin
Measurement Name: TrpBA (tryptophan product spot, TLC analysis)

The following molecules have reported results that may help.
Molecule | Target Under Test | Reported Value
Nc1ccc2[nH]ccc2c1 [5-amino-] | E. coli DH5α tryptophan synthase (TrpBA) (Escherichia coli, UniProt P0A879) | −
Clc1ccc2[nH]ccc2c1 [5-chloro-] | E. coli DH5α tryptophan synthase (TrpBA) (Escherichia coli, UniProt P0A879) | +
N#Cc1ccc2[nH]ccc2c1 [5-cyano-] | E. coli DH5α tryptophan synthase (TrpBA) (Escherichia coli, UniProt P0A879) | −
Oc1cccc2[nH]ccc12 [4-hydroxy] | E. coli DH5α tryptophan synthase (TrpBA) (Escherichia coli, UniProt P0A879) | +
COc1ccc2[nH]ccc2c1 [5-methoxy-] | E. coli DH5α tryptophan synthase (TrpBA) (Escherichia coli, UniProt P0A879) | +
OCc1ccc2[nH]ccc2c1 [5-hydroxymethyl-, indole-5-methanol] | E. coli DH5α tryptophan synthase (TrpBA) (Escherichia coli, UniProt P0A879) | +
O=C(O)c1ccc2[nH]ccc2c1 [Indole-5-carboxylic acid] | E. coli DH5α tryptophan synthase (TrpBA) (Escherichia coli, UniProt P0A879) | −
Fc1ccc2cc[nH]c2c1 [6-fluoroindole] | E. coli DH5α tryptophan synthase (TrpBA) (Escherichia coli, UniProt P0A879) | +
Oc1ccc2[nH]ccc2c1 [5-hydroxy-] | E. coli DH5α tryptophan synthase (TrpBA) (Escherichia coli, UniProt P0A879) | +
c1cc2cc3c(cc2[nH]1)OCO3 [5,6-methylenedioxy-] | E. coli DH5α tryptophan synthase (TrpBA) (Escherichia coli, UniProt P0A879) | −

I would be grateful if you could share the reported TrpBA (tryptophan product spot, TLC analysis) for Cc1ccc2[nH]c(C)cc2c1 [2,5-dimethyl-] .
+

I would be grateful if you could share the reported TrpBA (tryptophan product spot, TLC analysis) for Cc1cc2ccccc2[nH]1 [2-methyl-, 2-methylindole] .
−

I would be grateful if you could share the reported TrpBA (tryptophan product spot, TLC analysis) for O=C(O)c1cc2cc(Br)ccc2[nH]1 [5-bromoindole-2-carboxylic acid] .
−

###

- Target Under Test: tryptophanase (TnA) (Escherichia coli)
- Construct: made in house; host or cells: E. coli LMG194 (pBAD) or BL-21 (pET)
- Sequence (P0A853 whole entry): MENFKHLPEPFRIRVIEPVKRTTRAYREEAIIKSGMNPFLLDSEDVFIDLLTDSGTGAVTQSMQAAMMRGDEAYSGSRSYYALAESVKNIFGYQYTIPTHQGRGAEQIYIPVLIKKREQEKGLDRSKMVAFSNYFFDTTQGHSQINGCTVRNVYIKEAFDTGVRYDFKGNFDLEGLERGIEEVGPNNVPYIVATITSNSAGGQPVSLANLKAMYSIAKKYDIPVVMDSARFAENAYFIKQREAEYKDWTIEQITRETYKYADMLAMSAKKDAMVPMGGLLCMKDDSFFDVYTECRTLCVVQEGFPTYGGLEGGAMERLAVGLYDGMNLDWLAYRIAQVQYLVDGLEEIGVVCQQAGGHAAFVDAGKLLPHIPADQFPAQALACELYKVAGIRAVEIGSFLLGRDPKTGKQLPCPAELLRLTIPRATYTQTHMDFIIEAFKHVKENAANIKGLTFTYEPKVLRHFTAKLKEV
- Type: biochemical, E. coli
- Parameters: key: +: a clear ninhydrin-positive spot at the Rf of standard tryptophan derivatives after 16-65 h; (+): a weak spot in the product region; −: no product observed; NR: experiment not run
- Experimental Setup: indole derivative + L-serine + PLP, 37° C., 16-65 h, ninhydrin
Measurement Name: TnA (tryptophan product spot, TLC analysis)

Compound | Target Under Test | Reported Value
c1ccc2[nH]ccc2c1 [indole, reference compound] | tryptophanase (TnA) (Escherichia coli) | +
c1cc2cc3c(cc2[nH]1)OCO3 | tryptophanase (TnA) (Escherichia coli) | +
COc1ccc2cc[nH]c2c1 | tryptophanase (TnA) (Escherichia coli) | (+)
Oc1cccc2[nH]ccc12 [4-hydroxy] | tryptophanase (TnA) (Escherichia coli) | +

I would be grateful if you could share the reported TnA (tryptophan product spot, TLC analysis) for Nc1cccc2[nH]ccc12 .
+

I would be grateful if you could share the reported TnA (tryptophan product spot, TLC analysis) for Clc1cccc2cc[nH]c12 .
−

I would be grateful if you could share the reported TnA (tryptophan product spot, TLC analysis) for Nc1ccc2[nH]ccc2c1 .
−

I would be grateful if you could share the reported TnA (tryptophan product spot, TLC analysis) for O=C(O)c1ccc2[nH]ccc2c1 .
−

I would be grateful if you could share the reported TnA (tryptophan product spot, TLC analysis) for Fc1ccc2cc[nH]c2c1 .
(+)

I would be grateful if you could share the reported TnA (tryptophan product spot, TLC analysis) for COc1cc2cc[nH]c2cc1OC .
(+)

I would be grateful if you could share the reported TnA (tryptophan product spot, TLC analysis) for Cc1cc2ccccc2[nH]1 .
+

All figures here come from patent US20030096379A1.
